Consider the following binders; for each one, report its Fold IC50 increase relative to wild-type.
- SYSTEM: HIV-1 JR-CSF Env N339A (HIV-1 isolate JR-CSF) (UniProt P20871)
- METHOD NOTES: cell-based or functional assay
Numbers only, in fold.

binder="PGT-126 (antibody, V domains shown) VH: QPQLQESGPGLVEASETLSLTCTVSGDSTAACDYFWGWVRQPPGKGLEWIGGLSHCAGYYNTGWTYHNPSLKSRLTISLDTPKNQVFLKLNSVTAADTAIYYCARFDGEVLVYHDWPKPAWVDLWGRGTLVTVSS VL: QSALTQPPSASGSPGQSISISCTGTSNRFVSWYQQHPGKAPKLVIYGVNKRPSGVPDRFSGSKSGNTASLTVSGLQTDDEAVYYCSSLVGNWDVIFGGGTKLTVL" readout_name="Fold IC50 increase relative to wild-type" value_units=fold meas_value=0.6

We next turn to a different binder, shown below.
Which Fold IC50 increase relative to wild-type reading was recorded for the binder PGT-130 (antibody, V domains shown) VH: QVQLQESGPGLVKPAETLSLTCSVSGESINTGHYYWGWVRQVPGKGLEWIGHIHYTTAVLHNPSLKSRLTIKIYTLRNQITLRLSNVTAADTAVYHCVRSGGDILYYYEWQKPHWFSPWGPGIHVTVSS VL: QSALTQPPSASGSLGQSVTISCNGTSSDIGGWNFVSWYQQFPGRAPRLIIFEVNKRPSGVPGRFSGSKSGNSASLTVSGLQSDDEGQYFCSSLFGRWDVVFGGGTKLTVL ?
0.2

The values you see were collected from patent US20200024330A1.
